biological target: c-Met (Homo sapiens, UniProt P08581); construct: GST-cMet (aa956-1390); GST (N); test: RTK ELISA, recombinant kinase domain, c-Met; settings: GST-cMet (aa956-1390) expressed in baculovirus infected insect cells
Sequence (P08581 956-1390): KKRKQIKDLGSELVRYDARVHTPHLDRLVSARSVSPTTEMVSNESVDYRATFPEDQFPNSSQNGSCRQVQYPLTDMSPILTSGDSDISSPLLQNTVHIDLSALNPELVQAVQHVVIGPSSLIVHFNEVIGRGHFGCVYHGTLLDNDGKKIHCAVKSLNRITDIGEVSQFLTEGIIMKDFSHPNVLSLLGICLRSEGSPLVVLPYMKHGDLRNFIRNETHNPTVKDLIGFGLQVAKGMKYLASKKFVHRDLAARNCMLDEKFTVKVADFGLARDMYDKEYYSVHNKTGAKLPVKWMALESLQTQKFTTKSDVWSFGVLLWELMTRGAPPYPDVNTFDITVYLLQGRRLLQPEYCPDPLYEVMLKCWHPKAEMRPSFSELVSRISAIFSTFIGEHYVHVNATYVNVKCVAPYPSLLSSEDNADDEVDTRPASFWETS
Structures can show the parent of a compound that is named as a salt.
Measured IC50 by item

{"compound": "CCN(CC)c1ccc(-c2csc(N)n2)cc1 [Number 23, Hydrobromide]", "observed result": "> 50 µM"}
{"compound": "O=[N+]([O-])c1ccc(Nc2nc(-c3ccc(N4CCCC4)cc3)cs2)cc1 [Number 17, Dihydrobromide]", "observed result": "> 25 µM"}
{"compound": "CCN(CC)c1ccc(-c2csc(Nc3ccccc3)n2)cc1 [Number 26, Hydrobromide]", "observed result": "> 25 µM"}
{"compound": "c1cncc(Nc2nccs2)c1 [Number 4, Hydrochloride]", "observed result": "> 25 µM"}
{"compound": "c1cc(Nc2nc(-c3ccc(N4CCCC4)cc3)cs2)ccc1Nc1nc(-c2ccc(N3CCCC3)cc2)cs1 [Number 18, Dihydrobromide]", "observed result": "> 50 µM"}
{"compound": "c1ccc(CCNc2nc(-c3ccccn3)cs2)cc1 [Number 35, Hydrobromide]", "observed result": "2 µM"}
{"compound": "Nc1nc(-c2ccc(N3CCCC3)cc2)cs1 [Number 5, Hydrobromide]", "observed result": "5 µM"}
{"compound": "c1ccc(Nc2nc(-c3ccc(N4CCCC4)cc3)cs2)cc1 [Number 8, Hydrobromide]", "observed result": "> 25 µM"}

IC50 reported for this compound CCN(CC)c1ccc(-c2csc(Nc3ccccn3)n2)cc1 [Number 29, Hydrobromide] : > 50 µM

----------
target: KDR (Homo sapiens, UniProt P35968); construct: GST-KDR (aa807-1356); GST (N); purchased ProQuinase, Freiburg; host or cells: baculovirus infected insect cells Sf9; assay: RTK ELISA, recombinant kinase domain, KDR; assay type: biochemical; conditions: GST-KDR (aa807-1356) expressed in baculovirus infected insect cells
Sequence (P35968 807-1356): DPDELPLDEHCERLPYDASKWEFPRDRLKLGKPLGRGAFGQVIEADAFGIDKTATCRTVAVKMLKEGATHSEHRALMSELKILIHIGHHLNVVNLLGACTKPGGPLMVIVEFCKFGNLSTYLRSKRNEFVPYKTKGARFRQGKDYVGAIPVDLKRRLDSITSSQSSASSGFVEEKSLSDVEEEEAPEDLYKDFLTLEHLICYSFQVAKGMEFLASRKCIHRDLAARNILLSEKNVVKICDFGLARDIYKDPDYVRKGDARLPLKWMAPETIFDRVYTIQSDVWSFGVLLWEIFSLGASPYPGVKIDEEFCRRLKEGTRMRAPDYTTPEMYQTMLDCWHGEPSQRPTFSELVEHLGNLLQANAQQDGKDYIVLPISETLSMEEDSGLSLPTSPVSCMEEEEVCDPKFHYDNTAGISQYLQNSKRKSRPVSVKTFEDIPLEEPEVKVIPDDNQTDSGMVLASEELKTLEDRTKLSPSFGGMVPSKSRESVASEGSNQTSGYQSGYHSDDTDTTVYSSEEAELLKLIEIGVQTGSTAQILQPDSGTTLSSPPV
Structures can show the parent of a compound that is named as a salt.
recorded metric: IC50 (µM)

Answered cases to consult:
{"molecule": "CNc1nc(-c2ccc(N3CCCC3)cc2)cs1 [Number 7, Hydrobromide]", "recorded metric": "IC50", "unit descriptor": "µM", "observed result": 7}
{"molecule": "CCN(CC)c1ccc(-c2csc(C)n2)cc1 [Number 33, Hydrobromide]", "recorded metric": "IC50", "unit descriptor": "µM", "observed result": 5}
{"molecule": "CNc1nccs1 [Number 2, methyl-thiazol-2-yl-amine Hydrochloride]", "recorded metric": "IC50", "unit descriptor": "µM", "observed result": 5}

1: c1cc(Nc2nc(-c3ccc(N4CCCC4)cc3)cs2)ccn1 [Number 15, Hydrobromide]
2: FC(F)(F)c1cccc(Nc2nc(-c3ccc(N4CCCC4)cc3)cs2)c1 [Number 19, Hydrobromide]
3: c1ccc(Nc2nccs2)cc1 [Number 3, phenyl-thiazol-2-yl-amine Hydrochloride]
List by increasing IC50. Response field: labels, in requested order.
2, 3, 1

----------
molecular target: c-Met (Homo sapiens, UniProt P08581); construct: GST-cMet (aa956-1390); GST (N); purchased ProQuinase, Freiburg; host or cells: baculovirus infected insect cells Sf9; assay: RTK ELISA, recombinant kinase domain, c-Met; assay type: biochemical; settings: GST-cMet (aa956-1390) expressed in baculovirus infected insect cells
Structures can show the parent of a compound that is named as a salt.
recorded metric: IC50

{"compound": "c1ccc(Nc2nccs2)cc1 [Number 3, phenyl-thiazol-2-yl-amine Hydrochloride]", "system under test": "c-Met (Homo sapiens, UniProt P08581)", "IC50": "> 50 µM"}
{"compound": "c1cncc(-c2nc(-c3ccc(N4CCCC4)cc3)co2)c1 [Number 14, Hydrobromide]", "system under test": "c-Met (Homo sapiens, UniProt P08581)", "IC50": "> 25 µM"}
{"compound": "CCN(CC)c1ccc(-c2csc(NCc3ccccc3)n2)cc1 [Number 28, Hydrobromide]", "system under test": "c-Met (Homo sapiens, UniProt P08581)", "IC50": "> 50 µM"}

IC50 reported for this compound `CCN(CC)c1ccc(-c2csc(Nc3cccnc3)n2)cc1` : > 50 µM

IC50 reported for this compound CNc1nccs1 [Number 2, methyl-thiazol-2-yl-amine Hydrochloride] : > 50 µM

----------
target: KDR (Homo sapiens); construct: GST-KDR (aa807-1356); GST (N); test: RTK ELISA, recombinant kinase domain, KDR; details: GST-KDR (aa807-1356) expressed in baculovirus infected insect cells
Counter-ions that a name gives are not always drawn.
recorded metric: IC50

{"compound": "CN(c1ccccc1)c1nc(-c2ccc(N3CCCC3)cc2)cs1 [Number 9, Hydrobromide]", "IC50": "> 25 µM"}

IC50 reported for this compound c1cc(-c2nc(-c3ccc(N4CCCC4)cc3)co2)ccn1 [Number 16, Hydrobromide] : > 50 µM

IC50 reported for this compound c1ccc(-c2ccc(-c3csc(Nc4cccnc4)n3)s2)nc1 [Number 37, Hydrobromide] : > 50 µM

IC50 reported for this compound CNc1nc(-c2ccc(-c3ccccn3)s2)cs1 [Number 36, Hydrobromide] : > 10 µM

IC50 reported for this compound CCN(CC)c1ccc(-c2csc(Nc3ccccn3)n2)cc1 [Number 29, Hydrobromide] : > 50 µM

----------
molecular target: Tie-2 (Homo sapiens, UniProt Q02763); construct: GST-Tie2/Tek (aa 771-1124); GST (N); test: RTK ELISA, recombinant kinase domain, Tie-2; details: GST-Tie2/Tek (aa 771-1124) expressed in baculovirus infected insect cells
Sequence (Q02763 771-1124): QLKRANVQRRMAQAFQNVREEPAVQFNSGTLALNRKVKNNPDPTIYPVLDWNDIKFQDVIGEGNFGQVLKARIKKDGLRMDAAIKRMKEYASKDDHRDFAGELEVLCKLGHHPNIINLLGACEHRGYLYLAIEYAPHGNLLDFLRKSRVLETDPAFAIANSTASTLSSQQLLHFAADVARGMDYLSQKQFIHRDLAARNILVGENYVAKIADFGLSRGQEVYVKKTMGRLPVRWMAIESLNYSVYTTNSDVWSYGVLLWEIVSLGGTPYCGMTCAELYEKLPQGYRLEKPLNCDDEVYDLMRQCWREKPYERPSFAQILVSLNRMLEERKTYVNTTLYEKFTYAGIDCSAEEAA
pIC50: −log10 of the molar value. Counter-ions that a name gives are not always drawn.
recorded metric: pIC50

Answered cases to consult:
{"compound": "CNc1nccs1 [Number 2, methyl-thiazol-2-yl-amine Hydrochloride]", "pIC50": "< 4.30"}
{"compound": "c1ccc(CCNc2nc(-c3ccc(N4CCCC4)cc3)cs2)cc1 [Number 11, Hydrobromide]", "pIC50": "< 4.30"}
{"compound": "c1cc(-c2nc(-c3ccc(N4CCCC4)cc3)co2)ccn1 [Number 16, Hydrobromide]", "pIC50": "< 4.30"}

Entry CNc1nc(-c2ccc(-c3ccccn3)s2)cs1 [Number 36, Hydrobromide] , Tie-2 (Homo sapiens, UniProt Q02763) data, pIC50 value: < 4.70

Entry c1cncc(Nc2nccs2)c1 [Number 4, Hydrochloride] , Tie-2 (Homo sapiens, UniProt Q02763) data, pIC50 value: < 4.30

Entry CCN(CC)c1ccc(-c2csc(Nc3ccccn3)n2)cc1 [Number 29, Hydrobromide] , Tie-2 (Homo sapiens, UniProt Q02763) data, pIC50 value: < 4.30

----------
molecular target: KDR (Homo sapiens, UniProt P35968); construct: GST-KDR (aa807-1356); GST (N); purchased ProQuinase, Freiburg; host or cells: baculovirus infected insect cells Sf9; experiment: RTK ELISA, recombinant kinase domain, KDR; type: biochemical; settings: GST-KDR (aa807-1356) expressed in baculovirus infected insect cells
pIC50: −log10 of the molar value. Structures can show the parent of a compound that is named as a salt.
recorded metric: pIC50

pIC50 reported for this compound CCN(CC)c1ccc(-c2csc(NCc3ccccc3)n2)cc1 [Number 28, Hydrobromide] : < 4.30

pIC50 reported for this compound c1cncc(-c2nc(-c3ccc(N4CCCC4)cc3)co2)c1 [Number 14, Hydrobromide] : < 4.30

pIC50 reported for this compound O=[N+]([O-])c1ccc(Nc2nc(-c3ccc(N4CCCC4)cc3)cs2)cc1 [Number 17, Dihydrobromide] : < 5.00

----------
biological target: Tie-2 (Homo sapiens, UniProt Q02763); construct: GST-Tie2/Tek (aa 771-1124); GST (N); purchased ProQuinase, Freiburg; host or cells: baculovirus infected insect cells Sf9; experiment: RTK ELISA, recombinant kinase domain, Tie-2; type: biochemical; conditions: GST-Tie2/Tek (aa 771-1124) expressed in baculovirus infected insect cells
Structures can show the parent of a compound that is named as a salt.
recorded metric: IC50 (µM)

Answered cases to consult:
{"compound": "c1cncc(-c2nc(-c3ccc(N4CCCC4)cc3)co2)c1 [Number 14, Hydrobromide]", "system under test": "Tie-2 (Homo sapiens, UniProt Q02763)", "observed result": 5}
{"compound": "CCN(CC)c1ccc(-c2csc(Nc3cccnc3)n2)cc1", "system under test": "Tie-2 (Homo sapiens, UniProt Q02763)", "observed result": 0.8}

A: Nc1nc(-c2ccc(N3CCCC3)cc2)co1 [Number 6, Hydrobromide]
B: c1cc(Nc2nc(-c3ccc(N4CCCC4)cc3)cs2)ccn1 [Number 15, Hydrobromide]
For the pair A and B , which entry has the numerically smaller recorded IC50? // return label of chosen record
B
